Can you tell me MIC for the items I'm about to list?
# Tested on: Lactobacillus acidophilus
# include the unit after the value

Form entry - test system: Lactobacillus acidophilus; read-out: MIC; molecule: CON(C)Cc1ccc(O)c2c1C[C@H]1C[C@H]3[C@H](N(C)C)C(O)=C(C(N)=O)C(=O)[C@@]3(O)C(O)=C1C2=O [The Active]
4 µg/mL

Check CN(C)c1ccc(O)c2c1C[C@H]1C[C@H]3[C@H](N(C)C)C(O)=C(C(N)=O)C(=O)[C@@]3(O)C(O)=C1C2=O [Minocycline, minocycline] too.
0.5 µg/mL

Check CN(C)[C@@H]1C(O)=C(C(N)=O)C(=O)[C@@]2(O)C(O)=C3C(=O)c4c(O)cccc4[C@@](C)(O)[C@H]3C[C@@H]12 [Tetracycline, tetracycline] too.
2 µg/mL

Check C[C@H]1c2cccc(O)c2C(=O)C2=C(O)[C@]3(O)C(=O)C(C(N)=O)=C(O)[C@@H](N(C)C)[C@@H]3[C@@H](O)[C@@H]21 [Doxycycline, doxycycline] too.
2 µg/mL
